test system: giant foxtail (Setaria faberii); assay: Test D pre-/postemergence plant response; assay type: in vivo; conditions: Postemergence, 125 g ai/ha; scale 0 to 100, 0 no effect, 100 complete control
QUANTITY_NAME: Plant response rating, Foxtail, Giant

// solved cases for Plant response rating, Foxtail, Giant follow
Cc1cc(-c2ccccc2Oc2ncc(Cl)cn2)on1    30
FC(F)(Br)c1cc(-c2ccccc2Oc2ncc(Cl)cn2)no1    20
N#Cc1cccc(Oc2ncc(Cl)cn2)c1-c1cc(C(F)F)on1    45
Fc1cccc(Oc2ncc(Br)cn2)c1-c1cc(C(F)F)on1    20
Fc1ccc(Oc2ncc(Cl)cn2)c(-c2cc(C(F)(Cl)Cl)on2)c1    35
Clc1cnc(Oc2ccccc2-c2cc(Cl)sn2)nc1    15

Recorded Plant response rating, Foxtail, Giant for `FCc1cc(-c2c(F)cccc2Oc2ncc(Cl)cn2)no1` , please?
20

###

# maps each entry to its Plant response rating, Kochia
system: kochia (Kochia scoparia); assay: Test B pre-/postemergence plant response; format: in vivo; settings: Preemergence, 125 g ai/ha; 0 to 100 scale where 0 is no effect and 100 is complete control
Excerpt: […]
Keep it simple and answer with nothing but the number.

Cn1nnc(-c2ccccc2Oc2ncc(Cl)cn2)n1    60
Cn1nncc1-c1ccccc1Oc1ncc(Cl)cn1    0
CC(C)n1ncnc1-c1ccccc1Oc1ncc(Cl)cn1    0
FC(F)c1cc(-c2c(Cl)cccc2Oc2ncc(Cl)cn2)on1    90
Fc1ccc(Oc2ncc(Cl)cn2)c(-c2cc(C(F)F)on2)c1Cl    70

Recorded Plant response rating, Kochia for `Fc1ccc(Oc2ncc(Cl)cn2)c(-c2cc(C(F)F)on2)c1F` , please?
100

Recorded Plant response rating, Kochia for `CC(C)n1nc(C(F)(F)F)cc1-c1c(C#N)cccc1Oc1ncc(Cl)cn1` , please?
0

Recorded Plant response rating, Kochia for `Cc1cc(-c2ccccc2Oc2ncc(Cl)cn2)on1` , please?
80

Recorded Plant response rating, Kochia for `CCn1nc(C(F)(F)F)cc1-c1c(C#N)cccc1Oc1ncc(Cl)cn1` , please?
0

###

# maps each entry to its Plant response rating, Crabgrass, Large
tested on: large (Lg) crabgrass (Digitaria sanguinalis); experiment: Test D pre-/postemergence plant response; type: in vivo; details: Preemergence; 16 g ai/ha; scale 0 to 100 (0 no effect, 100 complete control)
Keep it simple and answer with nothing but the number.

// solved cases for Plant response rating, Crabgrass, Large follow
FC(F)c1cc(-c2c(Cl)cccc2Oc2ncc(Cl)cn2)on1 [Compound 120]    98
N#Cc1cccc(Oc2ncc(Cl)cn2)c1-c1cc(C(F)F)on1 [Compound 180]    30
FC(F)Oc1cccc(Oc2ncc(Cl)cn2)c1-c1cc(C(F)F)on1 [Compound 131]    98
Fc1ccc(Oc2ncc(Cl)cn2)c(-c2cc(C(F)F)on2)c1F [Compound 113]    98
N#Cc1cccc(Oc2ncc(Cl)cn2)c1-c1cc(C(F)(F)F)on1 [Compound 157]    5

Recorded Plant response rating, Crabgrass, Large for Cc1cc(-c2ccccc2Oc2ncc(Cl)cn2)no1 [Compound 60] , please?
5

Recorded Plant response rating, Crabgrass, Large for Clc1cnc(Oc2ccccc2-c2cc(C3CC3)on2)nc1 [Compound 183] , please?
5

Recorded Plant response rating, Crabgrass, Large for COc1cccc(Oc2ncc(Cl)cn2)c1-c1cc(C(F)(F)F)no1 [Compound 104] , please?
65

###

tested on: ducksalad (Heteranthera limosa); experiment: Test C flooded paddy test plant response; type: in vivo; settings: Flood, 250 g ai/ha; scale of 0 to 100 where 0 is no effect and 100 is complete control; 13 to 15 days
# maps each entry to its Ducksalad plant response rating
Keep it simple and answer with nothing but the number.

// solved cases for Ducksalad plant response rating follow
N#Cc1cccc(Oc2ncc(Cl)cn2)c1-c1ccc(Cl)cn1    80
Fc1cccc(Oc2ncc(Cl)cn2)c1-c1cc(C(F)(F)F)no1    85
Brc1cnc(Oc2ccccc2-c2ccns2)nc1    0
Clc1cccc(-c2ccccc2Oc2ncc(Br)cn2)n1    0

--- query ---
Recorded Ducksalad plant response rating for `Clc1cnc(Oc2ccccc2-c2nccc(Cl)n2)nc1` , please?
0

###

tested on: ragweed (common ragweed, Ambrosia elatior); test: Test D pre-/postemergence plant response; format: in vivo; details: Postemergence, 62 g ai/ha; scale 0 to 100, 0 no effect, 100 complete control
# maps each entry to its Ragweed plant response rating
Keep it simple and answer with nothing but the number.

// solved cases for Ragweed plant response rating follow
FCc1cc(-c2ccccc2Oc2ncc(Cl)cn2)on1 [Compound 224]    55
FC(Cl)(Cl)c1cc(-c2ccccc2Oc2ncc(Cl)cn2)no1 [Compound 198]    55
FC(F)c1cc(-c2ccccc2Oc2ncc(Br)cn2)on1 [Compound 212]    55

Recorded Ragweed plant response rating for Fc1cccc(Oc2ncc(Cl)cn2)c1-c1cc(C(F)(F)F)no1 [Compound 228] , please?
60

###

system: morningglory (Ipomoea spp.); assay: Test B pre-/postemergence plant response; type: in vivo; details: Postemergence, 500 g ai/ha; 0 to 100 scale (0 no effect, 100 complete control)
Assign class by Plant response rating, Morningglory: not lower than 30 means label 1; lower than 30 means label 0.

Quick check: does `Cn1nc(C(F)(F)F)cc1-c1c(C#N)cccc1Oc1ncc(Cl)cn1` have Plant response rating, Morningglory greater than or equal to 30?
label 1

Quick check: does `Cn1nc(C(F)(F)F)cc1-c1ccccc1Oc1ncc(Cl)cn1` have Plant response rating, Morningglory greater than or equal to 30?
label 0

Quick check: does `Clc1cnc(Oc2ccccc2-c2nccs2)nc1` have Plant response rating, Morningglory greater than or equal to 30?
label 0

###

# maps each entry to its pest or weed control at 125 g/ha
test system: field bindweed (Convolvulus arvensis); assay: Test F pre-/postemergence plant response; type: in vivo; conditions: Convolvulus arvensis, pre-emergence; 125 g ai/ha Preemergence; scale 0 to 100; read-out: Plant response rating, Field Bindweed
The answer is to be given in %; state only the numeric part.

Fc1cccc(Oc2ncc(Br)cn2)c1-c1cc(C(F)F)no1    95
FC(F)c1cc(-c2ccccc2Oc2ncc(Cl)cn2)no1    50
FC(F)c1cc(-c2ccccc2Oc2ncc(Br)cn2)no1    0

--- query ---
Recorded pest or weed control at 125 g/ha for `FC(F)(F)c1cc(-c2ccccc2Oc2ncc(Cl)cn2)no1` , please?
30

###

test system: barnyardgrass (Echinochloa crus-galli); assay: Test F pre-/postemergence plant response; assay type: in vivo; conditions: Echinochloa crus-galli, post-emergence; 62 g ai/ha Postemergence; scale 0 to 100; read-out: Plant response rating, Barnyardgrass
QUANTITY_NAME: pest or weed control at 62 g/ha (%)
The answer is to be given in %; state only the numeric part.

Fc1cccc(Oc2ncc(Cl)cn2)c1-c1cc(C(F)F)no1    50
FC(F)c1cc(-c2ccccc2Oc2ncc(Cl)cn2)no1    10
FC(F)(F)c1cc(-c2ccccc2Oc2ncc(Cl)cn2)no1    15
FC(F)c1cc(-c2ccccc2Oc2ncc(Cl)cn2)on1    0

--- query ---
Recorded pest or weed control at 62 g/ha for `Fc1cccc(Oc2ncc(Br)cn2)c1-c1cc(C(F)F)no1` , please?
50

###

system: canarygrass (Phalaris minor); test: Test E pre-/postemergence plant response; format: in vivo; conditions: pre-emergence, 62 g ai/ha, Preemergence, scale 0 to 100, read-out: Plant response rating, Canarygrass
QUANTITY_NAME: pest or weed control at 62 g/ha (%)
The answer is to be given in %; state only the numeric part.

// solved cases for pest or weed control at 62 g/ha follow
Fc1cccc(Oc2ncc(Cl)cn2)c1-c1cc(C(F)(F)F)on1    100
FC(F)c1cc(-c2ccccc2Oc2ncc(Cl)cn2)on1    65

Recorded pest or weed control at 62 g/ha for `FC(F)(F)c1cc(-c2ccccc2Oc2ncc(Cl)cn2)no1` , please?
100

Recorded pest or weed control at 62 g/ha for `FC(F)c1cc(-c2ccccc2Oc2ncc(Cl)cn2)no1` , please?
95

###

test system: ragweed (common ragweed, Ambrosia elatior); test: Test B pre-/postemergence plant response; assay type: in vivo; details: 125 g ai/ha, postemergence; 0 to 100 scale, 0 no effect, 100 complete control
QUANTITY_NAME: Plant response rating, Ragweed
Keep it simple and answer with nothing but the number.

// solved cases for Plant response rating, Ragweed follow
COc1cccc(Oc2ncc(Cl)cn2)c1-c1cc(C(F)(F)F)on1 [Compound 105]    30
Fc1cccc(Oc2ncc(Br)cn2)c1-c1cc(C(F)F)no1 [Compound 145]    50
Cn1ccnc1-c1ccccc1Oc1ncc(Br)cn1 [Compound 152]    0
N#Cc1cc(-c2c(F)cccc2Oc2ncc(Cl)cn2)no1 [Compound 222]    20
Cc1nc(-c2ccccc2Oc2ncc(Cl)cn2)co1 [Compound 70]    0

# value lookup — system ragweed (common ragweed, Ambrosia elatior), readout Plant response rating, Ragweed, item FC(F)(F)c1cc(-c2ccccc2Oc2ncc(Cl)cn2)ncn1 [Compound 54]
50

# value lookup — system ragweed (common ragweed, Ambrosia elatior), readout Plant response rating, Ragweed, item FC(F)=Cc1cc(-c2c(F)cccc2Oc2ncc(Cl)cn2)no1 [Compound 91]
0

# value lookup — system ragweed (common ragweed, Ambrosia elatior), readout Plant response rating, Ragweed, item FC(F)(F)COc1cc(-c2ccccc2Oc2ncc(Cl)cn2)ncn1 [Compound 227]
30

# value lookup — system ragweed (common ragweed, Ambrosia elatior), readout Plant response rating, Ragweed, item FC(c1cc(-c2ccccc2Oc2ncc(Cl)cn2)no1)C(F)(F)F (stereo not drawn) [Compound 133]
30
